target: human Src enzyme (Homo sapiens); construct: purchased Carna Biosciences, Inc. 08-173; assay: Src enzyme inhibitory activity (time-resolved fluorometry, biotinylated peptide phosphorylation); assay type: biochemical; conditions: read-out: SRC_IC50
Sequence (P12931 whole entry): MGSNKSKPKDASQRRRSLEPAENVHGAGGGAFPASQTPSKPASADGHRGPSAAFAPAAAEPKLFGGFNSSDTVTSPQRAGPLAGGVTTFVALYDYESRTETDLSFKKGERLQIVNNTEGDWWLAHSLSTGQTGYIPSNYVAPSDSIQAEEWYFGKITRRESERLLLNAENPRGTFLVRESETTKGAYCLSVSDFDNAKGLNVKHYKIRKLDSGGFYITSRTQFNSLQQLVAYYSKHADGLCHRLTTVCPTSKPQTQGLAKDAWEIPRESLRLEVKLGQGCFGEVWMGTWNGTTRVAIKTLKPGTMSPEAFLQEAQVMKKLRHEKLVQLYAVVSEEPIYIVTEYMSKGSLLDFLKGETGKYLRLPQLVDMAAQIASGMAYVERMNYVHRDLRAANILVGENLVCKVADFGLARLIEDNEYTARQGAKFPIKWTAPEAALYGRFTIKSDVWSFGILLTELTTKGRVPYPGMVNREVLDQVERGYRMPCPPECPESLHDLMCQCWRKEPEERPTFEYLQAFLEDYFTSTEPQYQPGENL
pIC50: −log10 of the molar value.
value_type: pIC50

1 = Cc1cc(-n2ncc(C(=O)c3cc4cc(OCC(F)F)c(C5CCN(S(C)(=O)=O)CC5)cc4[nH]3)c2N)ccc1Oc1ccccc1F
2 = CC(=O)N1CCC(c2cc3[nH]c(C(=O)c4cnn(-c5c(C)cc(Oc6ccccc6F)cc5F)c4N)cc3cc2C)CC1
3 = Cc1cc(Oc2ccccc2F)ccc1-n1ncc(C(=O)c2cc3cc(OC4CCN(C(C)C)CC4)c(F)cc3[nH]2)c1N
Can you order these entries from above by pIC50? Start with the largest number and work down. Field: ranking. Enter the labels in the order requested. 3, 2, 1
(3: 8.15, 2: 7.17, 1: 6.82)

----------
biological target: human Yes1 enzyme (Homo sapiens); construct: made in house; assay: Yes1 enzyme inhibitory activity (time-resolved fluorometry, biotinylated peptide phosphorylation); format: biochemical; conditions: read-out: YES_IC50
Sequence (P07947 whole entry): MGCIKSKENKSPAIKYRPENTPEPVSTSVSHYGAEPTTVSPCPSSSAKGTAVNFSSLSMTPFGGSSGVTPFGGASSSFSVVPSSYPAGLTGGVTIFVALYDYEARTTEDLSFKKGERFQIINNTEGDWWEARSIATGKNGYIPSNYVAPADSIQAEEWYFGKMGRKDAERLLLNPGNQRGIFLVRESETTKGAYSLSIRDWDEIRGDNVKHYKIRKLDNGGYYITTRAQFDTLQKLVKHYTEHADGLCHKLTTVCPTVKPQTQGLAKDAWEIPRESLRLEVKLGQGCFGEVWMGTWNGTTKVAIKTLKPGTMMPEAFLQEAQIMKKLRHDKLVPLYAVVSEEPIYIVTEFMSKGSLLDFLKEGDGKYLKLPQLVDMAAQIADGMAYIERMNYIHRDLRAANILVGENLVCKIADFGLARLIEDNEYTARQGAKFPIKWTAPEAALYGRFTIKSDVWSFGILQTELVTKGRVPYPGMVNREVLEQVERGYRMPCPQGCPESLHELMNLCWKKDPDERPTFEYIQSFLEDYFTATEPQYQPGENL
value_type: IC50 (nM)

Below, 4 molecules whose answers are already recorded.
Cc1cc(-n2ncc(C(=O)c3cc4cc(OC(F)F)c(N5C(=O)NC(C)(C)C5=O)cc4[nH]3)c2N)ccc1Oc1ccccc1F    4
Cc1cc2cc(C(=O)c3cnn(-c4c(C)cc(Oc5c(F)cccc5Cl)cc4F)c3N)[nH]c2cc1NS(C)(=O)=O    5.6
CC(C)N1CCC(c2cc3[nH]c(C(=O)c4cnn(-c5ccc(Oc6cccc(F)c6)cc5F)c4N)cc3cc2F)CC1    0.73
Cc1cc(Oc2ccccc2F)ccc1-n1ncc(C(=O)c2cc3cc(OCC(F)F)c(N4C(=O)[C@@H]5C[C@@H](O)CN5C4=O)cc3[nH]2)c1N    0.76

P = Cc1cc2cc(C(=O)c3cnn(-c4ccc(Oc5ncccc5Cl)cc4Cl)c3N)[nH]c2cc1NS(=O)(=O)N1CCOCC1
Q = Cc1cc(Oc2ccccc2F)ccc1-n1ncc(C(=O)c2cc3cc(OCC(F)F)c(N4C(=O)[C@@H]5C[C@H](NS(=O)(=O)Cc6ccccc6)CN5C4=O)cc3[nH]2)c1N
Sort P and Q by IC50 descending and give the first. Please identify the chosen entry by its label. P

I = Cc1cc(-n2ncc(C(=O)c3cc4cc(OC5CCN(C(C)C)CC5)c(F)cc4[nH]3)c2N)ccc1Oc1ccccc1F
II = Cc1cc(Oc2ccccc2F)ccc1-n1ncc(C(=O)c2cc3cc(C(C)C)c(Br)cc3[nH]2)c1N
III = Cc1cc(Oc2c(F)cccc2F)ncc1-n1ncc(C(=O)c2cc3cc(F)c(NC4CCN(S(C)(=O)=O)CC4)cc3[nH]2)c1N
Please give the order of these molecules when sorted by IC50, largest value leading. Field: ranking. Enter the labels in the order requested. II, III, I
(II: 8.5 nM, III: 3.9 nM, I: 1.3 nM)

----------
target: human Lck enzyme (Homo sapiens, UniProt P06239); construct: purchased Carna Biosciences, Inc. 08-170; assay: Lck enzyme inhibitory activity (time-resolved fluorometry, biotinylated peptide phosphorylation); type: biochemical; conditions: read-out: LCK_IC50
Sequence (P06239 whole entry): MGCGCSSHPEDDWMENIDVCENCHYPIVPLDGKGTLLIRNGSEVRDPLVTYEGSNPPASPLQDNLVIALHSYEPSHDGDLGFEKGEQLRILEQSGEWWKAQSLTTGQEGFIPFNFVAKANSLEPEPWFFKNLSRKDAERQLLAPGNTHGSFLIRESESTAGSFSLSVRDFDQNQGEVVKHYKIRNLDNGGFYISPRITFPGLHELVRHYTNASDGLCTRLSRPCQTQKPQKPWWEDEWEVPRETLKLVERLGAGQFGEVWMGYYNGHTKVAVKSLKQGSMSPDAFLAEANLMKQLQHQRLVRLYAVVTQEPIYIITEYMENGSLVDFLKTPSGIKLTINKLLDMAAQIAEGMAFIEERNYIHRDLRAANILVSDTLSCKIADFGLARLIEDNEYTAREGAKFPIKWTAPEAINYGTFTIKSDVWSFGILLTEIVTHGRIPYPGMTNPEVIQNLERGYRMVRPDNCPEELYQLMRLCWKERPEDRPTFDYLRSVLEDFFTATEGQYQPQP
pIC50: −log10 of the molar value.
value_type: pIC50

Cc1cc(-n2ncc(C(=O)c3cc4cc(OC5CCN(C6CCCC6)CC5)c(Br)cc4[nH]3)c2N)ccc1Oc1ccccc1F    7.33
CS(=O)(=O)Nc1cc2[nH]c(C(=O)c3cnn(-c4c(Cl)cc(Oc5ccccc5F)cc4Cl)c3N)cc2cc1F    7.19
Cc1cc(-n2ncc(C(=O)c3cc4cc(N5CCOCC5)c(N5C(=O)NC(C)(C)C5=O)cc4[nH]3)c2N)ccc1Oc1ccccc1F    7.16

----------
molecular target: human Src enzyme (Homo sapiens); construct: purchased Carna Biosciences, Inc. 08-173; assay: Src enzyme inhibitory activity (time-resolved fluorometry, biotinylated peptide phosphorylation); type: biochemical; settings: biotinylated peptide phosphorylation, read-out: SRC_IC50
value_type: IC50 (nM)

Below, 3 compounds whose answers are already recorded.
Cc1cc2cc(C(=O)c3cnn(-c4ccc(Oc5ccccc5F)cc4C)c3N)[nH]c2cc1N1C(=O)N[C@@H](Cc2ccccc2)C1=O [Example 5-1-457]    78
Cc1cnc(F)c(S(=O)(=O)Nc2cc3[nH]c(C(=O)c4cnn(-c5cnc(Oc6c(F)cccc6F)cc5C)c4N)cc3cc2C)c1 [Example 5-1-521]    470
Cc1cc2cc(C(=O)c3cnn(-c4ccc(Oc5ccccc5F)cc4C)c3N)[nH]c2cc1N1C(=O)N[C@@H](C)C1=O [Example 5-1-444]    13

A = Cc1cc(Oc2ccccc2F)ccc1-n1ncc(C(=O)c2cc3cc(OCCN4CCOCC4)c(N4CCCS4(=O)=O)cc3[nH]2)c1N [Example 4-25-012]
B = Cc1cc(Oc2cccc(Cl)c2)ncc1-n1ncc(C(=O)c2cc3cc(F)c(NS(=O)(=O)CCCF)cc3[nH]2)c1N [Example 4-2-026]
C = Cc1cc(Oc2ccccc2F)ncc1-n1ncc(C(=O)c2cc3cc(OC(F)F)c(N4CCOCC4)cc3[nH]2)c1N [Example 4-25-022]
D = Cc1cc(Oc2c(F)cccc2F)ncc1-n1ncc(C(=O)c2cc3cc(F)c(NS(=O)(=O)c4cc(F)cc(F)c4)cc3[nH]2)c1N [Example 5-1-563]
E = Cc1cc(Oc2ccccc2F)ccc1-n1ncc(C(=O)c2cc3cc(OC(F)F)c(C4CCN(S(C)(=O)=O)CC4)cc3[nH]2)c1N [Example 4-17-003]
Put the compounds in ascending order of IC50. Field: ranking. Enter the labels in the order requested. A, E, C, B, D

1 = Cc1cc2cc(C(=O)c3cnn(-c4ccc(Oc5ccccc5F)cc4C)c3N)[nH]c2cc1NS(=O)(=O)CC(=O)NC(C)C [Example 4-10-008]
2 = Cc1cc(Oc2cccc(Cl)c2)cc(F)c1-n1ncc(C(=O)c2cc3cc(F)c(NS(=O)(=O)C4CC4)cc3[nH]2)c1N [Example 4-7-012]
Please choose the item with the lower IC50 value from this pair: 1 and 2 Please identify the chosen entry by its label. 1

----------
target: human Src enzyme (Homo sapiens); construct: purchased Carna Biosciences, Inc. 08-173; assay: Src enzyme inhibitory activity (time-resolved fluorometry, biotinylated peptide phosphorylation); format: biochemical; settings: read-out: SRC_IC50
value_type: IC50 (nM)

Cc1cc2cc(C(=O)c3cnn(-c4cnc(Oc5c(F)cccc5F)cc4C)c3N)[nH]c2cc1N1C(=O)NC2(CCN(Cc3ccccc3)CC2)C1=O    170
Cc1cc(Oc2c(F)cccc2F)ncc1-n1ncc(C(=O)c2cc3cc(OCC(F)F)c(-c4cnn(C)c4)cc3[nH]2)c1N    26

a = Cc1cc(-n2ncc(C(=O)c3cc4cc(OC5CCN(C6CS(=O)(=O)C6)CC5)c(-c5cncnc5)cc4[nH]3)c2N)ccc1Oc1ccccc1F
b = Cc1cc2cc(C(=O)c3cnn(-c4ccc(Oc5ccccc5)cc4C)c3N)[nH]c2cc1NS(C)(=O)=O
c = Cc1cc(Oc2c(F)cccc2F)ncc1-n1ncc(C(=O)c2cc3cc(OCC(F)F)c(NS(=O)(=O)c4cc(F)cc(F)c4)cc3[nH]2)c1N
d = Cc1cc(-n2ncc(C(=O)c3cc4cc(OC5CCN(C6CCC6)CC5)c(Cl)cc4[nH]3)c2N)ccc1Oc1ccccc1F
Put the compounds in ascending order of IC50. Field: ranking. Enter the labels in the order requested. b, a, d, c
(b: 21 nM, a: 270 nM, d: 430 nM, c: 700 nM)

----------
biological target: human Lck enzyme (Homo sapiens); construct: purchased Carna Biosciences, Inc. 08-170; experiment: Lck enzyme inhibitory activity (time-resolved fluorometry, biotinylated peptide phosphorylation); type: biochemical; conditions: biotinylated peptide phosphorylation, read-out: LCK_IC50
pIC50: −log10 of the molar value.
value_type: pIC50

Below, 4 molecules whose answers are already recorded.
Cc1cc2cc(C(=O)c3cnn(-c4ccc(Oc5ccccc5F)cc4C)c3N)[nH]c2cc1NS(=O)(=O)c1cncc(F)c1 [Example 5-1-545]    7.66
Cc1cc(Oc2ccccc2)cc(F)c1-n1ncc(C(=O)c2cc3cc(NS(C)(=O)=O)c(Cl)cc3[nH]2)c1N [Example 4-2-095]    8.28
Cc1cc2cc(C(=O)c3cnn(-c4c(C)cc(Oc5cccc(F)c5F)cc4F)c3N)[nH]c2cc1NS(C)(=O)=O [Example 4-2-056]    7.62
Cc1cc2cc(C(=O)c3cnn(-c4cnc(Oc5ccccc5F)cc4C)c3N)[nH]c2cc1NS(=O)(=O)c1cncc(C#N)c1 [Example 5-1-480]    7.00

a = Cc1cc(Oc2ccccc2F)cc(F)c1-n1ncc(C(=O)c2cc3cc(F)c(NS(=O)(=O)CCCF)cc3[nH]2)c1N [Example 4-2-019]
b = Cc1cc(Oc2cccc(Cl)c2)cc(F)c1-n1ncc(C(=O)c2cc3cc(F)c(NS(=O)(=O)C4CC4)cc3[nH]2)c1N [Example 4-7-012]
Please choose the item with the lower pIC50 value from this pair: a and b Please identify the chosen entry by its label. b
